Cited source: patent US20240208968A1

Give pIC50 for every item shown.
- target: αvβ1 (Homo sapiens, UniProt P05556+P06756)
- Sequence (P05556 21-728 limits assumed, one chain of several): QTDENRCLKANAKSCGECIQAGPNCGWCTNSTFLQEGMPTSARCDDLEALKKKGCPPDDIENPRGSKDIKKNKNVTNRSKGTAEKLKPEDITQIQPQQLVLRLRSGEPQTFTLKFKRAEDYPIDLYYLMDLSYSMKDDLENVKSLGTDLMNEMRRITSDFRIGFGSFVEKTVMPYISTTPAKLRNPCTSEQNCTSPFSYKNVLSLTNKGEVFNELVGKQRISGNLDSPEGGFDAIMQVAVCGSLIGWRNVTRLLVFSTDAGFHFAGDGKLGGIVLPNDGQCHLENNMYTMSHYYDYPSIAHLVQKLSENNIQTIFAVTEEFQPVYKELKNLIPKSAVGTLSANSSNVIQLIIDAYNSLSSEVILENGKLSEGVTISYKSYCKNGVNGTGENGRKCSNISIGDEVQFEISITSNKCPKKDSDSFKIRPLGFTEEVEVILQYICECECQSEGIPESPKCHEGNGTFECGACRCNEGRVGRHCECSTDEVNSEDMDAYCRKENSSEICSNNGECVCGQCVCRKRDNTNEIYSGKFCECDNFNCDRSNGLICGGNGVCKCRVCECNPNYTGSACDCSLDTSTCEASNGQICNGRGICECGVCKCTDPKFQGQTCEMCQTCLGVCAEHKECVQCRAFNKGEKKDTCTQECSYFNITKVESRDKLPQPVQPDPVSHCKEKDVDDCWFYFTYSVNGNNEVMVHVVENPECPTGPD
- experiment: Solid Phase Integrin αvβ1 Assay
pIC50: −log10 of the molar value.

Example entries and their recorded answers appear below.
| record.smiles | pIC50 |
| --- | --- |
| O=C(NC[C@@H](C(=O)O)c1cccc2c1CCCC2)[C@@H]1CCCN(CCCc2ccc3c(n2)NCCC3)C1 | 6.00 to 7.00 |
| O=C(O)C[C@H](CO[C@@H]1CCCN(CCCc2ccc3c(n2)NCCC3)C1)c1cccc(N2C[C@H]3CC[C@@H]2CO3)c1 | 6.00 to 7.00 |
| O=C(NC[C@H](NS(=O)(=O)c1ccc2c(c1)CCC2)C(=O)O)[C@@H]1CCCN(CCCc2ccc3c(n2)NCCC3)C1 | 6.00 to 7.00 |

Could I get pIC50 for every one of these entries?
1. O=C(NC[C@H](Nc1ncnc2ccccc12)C(=O)O)[C@@H]1CCCN(CCCc2ccc3c(n2)NCCC3)C1
2. O=C(O)C[C@@H](CC(=O)N[C@@H]1CCN(CCCCc2ccc3c(n2)NCCC3)C1)c1ccccc1
3. O=C(O)[C@H](CCO[C@@H]1CCCN(CCCc2ccc3c(n2)NCCC3)C1)c1ccc(C2CC2)cc1
4. C[C@@H]1C[C@H](C(=O)N[C@@H](CC(=O)O)c2ccccc2)CN(CCCc2ccc3c(n2)NCCC3)C1

1. > 7.00
2. > 7.00
3. > 7.00
4. > 7.00

---

Give IC50 for every item shown.
- target: αvβ6 (Homo sapiens, UniProt P06756+P18564)
- Sequence (P06756 31-992 limits assumed): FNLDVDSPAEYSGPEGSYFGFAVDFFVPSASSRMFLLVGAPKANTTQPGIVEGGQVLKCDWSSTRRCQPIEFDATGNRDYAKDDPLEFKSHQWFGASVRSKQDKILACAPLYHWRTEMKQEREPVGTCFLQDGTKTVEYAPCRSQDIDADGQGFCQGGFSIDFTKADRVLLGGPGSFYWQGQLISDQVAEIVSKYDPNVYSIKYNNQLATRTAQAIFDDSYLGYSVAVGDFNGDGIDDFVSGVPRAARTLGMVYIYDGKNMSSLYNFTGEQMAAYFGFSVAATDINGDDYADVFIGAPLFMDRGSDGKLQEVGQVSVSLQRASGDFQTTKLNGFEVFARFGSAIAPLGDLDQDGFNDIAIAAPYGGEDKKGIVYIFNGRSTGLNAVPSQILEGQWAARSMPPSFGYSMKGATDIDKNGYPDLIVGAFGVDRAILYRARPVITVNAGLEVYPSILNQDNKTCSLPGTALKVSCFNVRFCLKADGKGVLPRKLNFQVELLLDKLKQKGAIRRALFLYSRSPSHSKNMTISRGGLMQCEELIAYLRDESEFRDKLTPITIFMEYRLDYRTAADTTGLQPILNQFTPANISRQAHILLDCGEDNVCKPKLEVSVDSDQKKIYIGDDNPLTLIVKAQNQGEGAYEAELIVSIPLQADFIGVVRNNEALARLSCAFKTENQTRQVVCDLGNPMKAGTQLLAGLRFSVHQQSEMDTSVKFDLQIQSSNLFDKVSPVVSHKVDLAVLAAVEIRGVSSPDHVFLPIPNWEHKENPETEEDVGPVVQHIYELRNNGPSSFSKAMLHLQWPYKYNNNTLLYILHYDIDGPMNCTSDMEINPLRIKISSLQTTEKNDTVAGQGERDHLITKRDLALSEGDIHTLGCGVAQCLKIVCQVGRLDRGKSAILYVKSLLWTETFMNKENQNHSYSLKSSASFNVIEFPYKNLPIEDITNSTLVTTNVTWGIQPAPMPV
- Sequence (P18564 22-707 limits assumed): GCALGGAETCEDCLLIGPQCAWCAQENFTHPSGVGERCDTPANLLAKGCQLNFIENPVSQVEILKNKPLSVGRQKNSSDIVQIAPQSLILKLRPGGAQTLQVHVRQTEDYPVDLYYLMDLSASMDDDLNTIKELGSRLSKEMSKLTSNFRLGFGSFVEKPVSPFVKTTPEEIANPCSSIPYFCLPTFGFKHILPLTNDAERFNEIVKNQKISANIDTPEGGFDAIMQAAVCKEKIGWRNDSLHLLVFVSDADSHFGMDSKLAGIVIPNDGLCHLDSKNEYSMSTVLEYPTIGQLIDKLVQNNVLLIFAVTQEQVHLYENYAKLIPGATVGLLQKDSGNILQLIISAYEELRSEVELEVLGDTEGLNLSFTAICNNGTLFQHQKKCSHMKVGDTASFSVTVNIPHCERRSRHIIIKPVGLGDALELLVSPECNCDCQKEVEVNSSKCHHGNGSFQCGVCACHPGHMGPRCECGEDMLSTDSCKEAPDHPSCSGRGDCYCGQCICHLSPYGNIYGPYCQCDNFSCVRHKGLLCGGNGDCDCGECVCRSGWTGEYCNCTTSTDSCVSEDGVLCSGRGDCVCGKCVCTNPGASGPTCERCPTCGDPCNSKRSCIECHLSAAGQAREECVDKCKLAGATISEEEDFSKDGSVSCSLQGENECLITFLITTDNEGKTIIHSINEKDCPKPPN
- experiment: Solid Phase Integrin αvβ6 Assay

Example entries and their recorded answers appear below.
| compound | IC50 |
| --- | --- |
| Cc1c[s+]([O-])c2ncnc(N[C@H](CCO[C@@H]3CCCN(CCCc4ccc5c(n4)NCCC5)C3)C(=O)O)c12 (stereo partly shown) | > 1000 nM |
| O=C(O)[C@@H](CO[C@@H]1CCCN(CCCc2ccc3c(n2)NCCC3)C1)c1ccccc1 | > 1000 nM |
| CC1(C)CN(c2cccc([C@H](CNC(=O)[C@@H]3CCCN(CCCc4ccc5c(n4)NCCC5)C3)C(=O)O)c2)CCO1 | 100 to 1000 nM |
| O=C(N[C@H](CCO[C@@H]1CCCN(CCCc2ccc3c(n2)NCCC3)C1)C(=O)O)c1c(F)cc(N2CCOCC2)cc1F | > 1000 nM |

Could I get IC50 for every one of these entries?
1. O=C(NC[C@@H](Nc1ccccc1C1CC(F)(F)C1)C(=O)O)[C@@H]1CCCN(CCCc2ccc3c(n2)NCCC3)C1
2. O=C(O)C[C@H](NC(=O)[C@H]1CCCN(CCCCc2ccc3c(n2)NCCC3)C1)c1ccccc1
3. O=C(CC[C@H](C(=O)O)c1ccccc1)N[C@@H]1CCN(C(=O)CCCc2ccc3c(n2)NCCC3)C1
4. Cc1cc(C)n(-c2cccc([C@@H](CNC(=O)[C@@H]3CCCN(CCCc4ccc5c(n4)NCCC5)C3)C(=O)O)c2)n1
5. O=C(O)C[C@@H](NC(=O)[C@@H]1CCCN(CCCc2ccc3c(n2)NCCC3)C1)c1cccc(OC2COC2)c1

1: < 100 nM; 2: > 1000 nM; 3: > 1000 nM; 4: < 100 nM; 5: < 100 nM

Recorded IC50 for O=C(CC[C@H](C(=O)O)c1ccccc1)N[C@@H]1CCN(CCCCc2ccc3c(n2)NCCC3)C1 , please?
> 1000 nM

---

- target: αvβ1 (Homo sapiens, UniProt P05556+P06756)
- experiment: Solid Phase Integrin αvβ1 Assay
pIC50: −log10 of the molar value.
Give pIC50 for every item shown.

Example entries and their recorded answers appear below.
| compound | pIC50 |
| --- | --- |
| O=C(O)C(CNC(=O)[C@@H]1CCCN(CCCc2ccc3c(n2)NCCC3)C1)c1cc(-c2ccccc2)ccn1 (some centres unmarked) [Compound 628] | > 7.00 |
| O=C(O)C[C@@H](CO[C@H]1CCCN(CCCc2ccc3c(n2)NCCC3)C1)c1ccccc1 [Compound 445] | 6.00 to 7.00 |
| O=C(NC[C@H](C(=O)O)c1cccc2c1CCC2)[C@@H]1CCCN(CCCc2ccc3c(n2)NCCC3)C1 [Compound 560] | 6.00 to 7.00 |
| O=C(O)C[C@@H](NC(=O)[C@@H]1CCCN(CCCc2ccc3c(n2)NCCC3)C1)c1cccc2c1CCCC2 [Compound 212-B] | 6.00 to 7.00 |
| O=C(O)[C@H](CCO[C@@H]1CCCN(CCCc2ccc3c(n2)NCCC3)C1)Nc1ncnc2cc(F)c(F)cc12 [Compound 474] | 6.00 to 7.00 |

Could I get pIC50 for every one of these entries?
1. O=C(NC[C@H](NS(=O)(=O)c1cccc2c1CCC2)C(=O)O)[C@@H]1CCCN(CCCc2ccc3c(n2)NCCC3)C1 [Compound 543]
2. O=C(O)[C@@H](c1ccccc1)[C@H](O)CO[C@@H]1CCCN(CCCc2ccc3c(n2)NCCC3)C1 [Compound 609]
3. O=C(O)C(CCO[C@@H]1CCCN(CCCc2ccc3c(n2)NCCC3)C1)c1ccnc(-c2ccccc2)c1 (some centres unmarked) [Compound 505]

1: > 7.00; 2: < 6.00; 3: < 6.00

---

- target: αvβ6 (Homo sapiens, UniProt P06756+P18564)
- experiment: Solid Phase Integrin αvβ6 Assay
pIC50: −log10 of the molar value.
parameter: pIC50

Example entries and their recorded answers appear below.
| compound | pIC50 |
| --- | --- |
| O=C(O)C[C@@H](NC(=O)[C@@H]1CCCN(CCCc2ccc3c(n2)NCCC3)C1)c1cccc2c1CCCO2 [Compound 216-B] | < 6.00 |
| C[C@@H]1CN(c2cccc([C@H](CNC(=O)[C@@H]3CCCN(CCCc4ccc5c(n4)NCCC5)C3)C(=O)O)c2)C[C@@H](C)O1 [Compound 605] | > 7.00 |

Proceed to the following item.
Recorded pIC50 for O=C(O)[C@H](CCO[C@@H]1CCCN(CCCc2ccc3c(n2)NCCC3)C1)c1ccc(F)c(-c2ccccc2)c1 [Compound 499] , please?
> 7.00

---

- target: αvβ1 (Homo sapiens, UniProt P05556+P06756)
- experiment: Solid Phase Integrin αvβ1 Assay
- Type: binding
pIC50: −log10 of the molar value. Counter-ions that a name gives are not always drawn.
Give pIC50 for every item shown.

Example entries and their recorded answers appear below.
| compound | reported.result |
| --- | --- |
| O=C(O)[C@@H](CCO[C@@H]1CCCN(CCCc2ccc3c(n2)NCCC3)C1)Nc1ncnc2cc(F)c(F)cc12 | < 6.00 |
| O=C(O)C[C@H](NC(=O)[C@@H]1CCCN(CCCc2ccc3c(n2)NCCC3)C1)c1ccc2c(c1)CCC2 [Compound 201-A, hydrochloride] | 6.00 to 7.00 |
| O=C(O)C(c1ccccc1)C(O)CO[C@@H]1CCCN(CCCc2ccc3c(n2)NCCC3)C1 (some centres unmarked) | < 6.00 |
| O=C(O)[C@@H](CCO[C@@H]1CCCN(CCc2ccc3c(n2)NCCC3)C1)NC(=O)C12CCC(CC1)CC2 | > 7.00 |

Proceed to the following item.
Recorded pIC50 for O=C(NC[C@@H](C(=O)O)c1cccc2nn(CC3CC3)cc12)[C@@H]1CCCN(CCCc2ccc3c(n2)NCCC3)C1 , please?
6.00 to 7.00

---

- target: αvβ1 (Homo sapiens, UniProt P05556+P06756)
- experiment: Solid Phase Integrin αvβ1 Assay
Structures can show the parent of a compound that is named as a salt.
parameter: IC50

Example entries and their recorded answers appear below.
| compound | reported.result |
| --- | --- |
| O=C(O)C[C@H](NC(=O)[C@@H]1CCCN(CCCCc2ccc3c(n2)NCCC3)C1)c1ccccc1 [Compound 288, hydrochloride] | 100 to 1000 nM |
| O=C(NC[C@@H](C(=O)O)c1ccc(F)c(-c2ccccc2)c1)[C@@H]1CCCN(CCCc2ccc3c(n2)NCCC3)C1 | 100 to 1000 nM |
| O=C(CC[C@H](NC(=O)C12CCC(CC1)CC2)C(=O)O)N[C@H]1CCN(C(=O)CCCc2ccc3c(n2)NCCC3)C1 | < 100 nM |
| O=C(O)C[C@H](NC(=O)[C@@H]1CCCN(CCCc2ccc3c(n2)NCCC3)C1)c1cccc(OC2COC2)c1 | < 100 nM |
| O=C(NC[C@H](C(=O)O)c1cccc(-c2ccccc2C(F)(F)F)c1)[C@@H]1CCCN(CCCc2ccc3c(n2)NCCC3)C1 | < 100 nM |

Could I get IC50 for every one of these entries?
1. O=C(NC[C@@H](C(=O)O)c1cc(F)cc(-c2cccc(F)c2)c1)[C@@H]1CCCN(CCCc2ccc3c(n2)NCCC3)C1
2. O=C(O)C[C@H](NC(=O)[C@@H]1CCCN(CCCc2ccc3c(n2)NCCC3)C1)c1cccc(C2CC2)c1 [Compound 224, hydrochloride]
3. O=C(N[C@@H](CCO[C@@H]1CCCN(CCCc2ccc3c(n2)NCCC3)C1)C(=O)O)c1c(F)cccc1F

["< 100 nM", "< 100 nM", "< 100 nM"]
